Would you kindly list AC50 for each of these compounds?
# experimentalSystem: UniProtKB Q9Y6A5
# measurementNotes: ARNT/TACC3 binding disruptors, dose response, biochemical, AlphaScreen, dry powder (AID 720563)
# testConditions: AlphaScreen His-ARNT PAS-B/GST-TACC3 binding, luminescence
Activity calls are given as the source filed them.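 Rule for the calls: active = compounds whose fitted AC50 lies at or below twice their top valid test dose; inconclusive = flat curve between -70 and -30 percent, or unreliable curve fit; inactive = the rest.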

compound=O=C(CSc1ccc(-c2ccccn2)nn1)Nc1nccs1 recordedmetric=AC50 result="0.262 µM"
compound=O=C(CSc1ccc(-c2ccccn2)nn1)N1CCCC1 recordedmetric=AC50 result="1.68 µM"
compound=O=C(Nc1nc(-c2ccccn2)cs1)c1ccc(S(=O)(=O)N2CCOCC2)cc1 recordedmetric=AC50 result="0.342 µM"
compound=CC1CCN(S(=O)(=O)c2ccc(C(=O)Nc3nnc(C4CC4)o3)cc2)CC1 recordedmetric=AC50 result="16.7 µM"
compound=Cc1ccc(C(=O)Nc2nc(-c3ccccc3)cs2)o1 recordedmetric=AC50 result="> 136 µM (inactive)"
compound=CC1CCN(S(=O)(=O)c2ccc(C(=O)Nc3nnc(-c4ccccn4)o3)cc2)CC1 recordedmetric=AC50 result="39.6 µM"

// input: 5 compounds below; output: AC50 for each
1. CCn1nc(-c2cccnc2)nc2c(=O)n(C)c(=O)nc1-2
2. O=C(Nc1nc(-c2ccccn2)cs1)c1ccco1
3. CC1CCCN(S(=O)(=O)c2ccc(C(=O)Nc3nnc(C4=COCCO4)o3)cc2)C1 (stereo unspecified)
4. COC(=O)c1ccc(NC(=O)CSc2ccc(-c3ccccn3)nn2)cc1
5. Cc1cccc(NC(=O)CSc2ccc(-c3ccccn3)nn2)c1C

1. 0.0784 µM
2. 0.82 µM
3. 11.2 µM
4. 0.63 µM
5. 0.819 µM

====

# experimentalSystem: Transforming acidic coiled-coil-containing protein 3 (Homo sapiens) (UniProt Q9Y6A5)
# measurementNotes: ARNT/TACC3 binding disruptors, dose response, biochemical, AlphaScreen, dry powder (AID 720563);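 active = compounds whose fitted AC50 lies at or below twice their top valid test dose; inconclusive = flat curve between -70 and -30 percent, or unreliable curve fit; inactive = the rest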
# testConditions: AlphaScreen His-ARNT PAS-B/GST-TACC3 binding, luminescence
Give your call using only these classes: active, inactive

Answered examples (3):
compound=Cc1ccc(C(=O)Nc2nc(-c3ccccn3)cs2)o1 class=active
compound=O=C(CSc1ccc(-c2ccccn2)nn1)NC1CCCCC1 class=active
compound="CC(C)CC(=O)NC(c1cccs1)c1ccc2cccnc2c1O (configuration not stated)" class=active

Outcome? CCc1cc2c(=O)[nH]c(-c3ccccn3)nc2s1 active

Outcome? O=C(CSc1ccc(-c2ccccn2)nn1)Nc1ccccc1 active

====

# experimentalSystem: Transforming acidic coiled-coil-containing protein 3 (Homo sapiens)
# measurementNotes: ARNT/TACC3 binding disruptors, dose response, biochemical, AlphaScreen, dry powder (AID 720563);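 active means compounds whose fitted AC50 lies at or below twice their top valid test dose; inconclusive means flat curve between -70 and -30 percent, or unreliable curve fit; inactive means the rest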
# testConditions: AlphaScreen His-ARNT PAS-B/GST-TACC3 binding, luminescence
Give your call using only these classes: label 1 = active, label 0 = inactive

Outcome? CC1CCN(S(=O)(=O)c2ccc(C(=O)Nc3nnc(-c4cccs4)o3)cc2)CC1 label 1

Outcome? CCCCC(=O)NC(c1ccco1)c1ccc2cccnc2c1O (configuration not stated) label 1

Outcome? O=C(Nc1nnc(-c2ccc(F)cc2)o1)c1ccc(S(=O)(=O)N2CCCCC2)cc1 label 1

Outcome? COc1ccc(-c2nnc(NC(=O)c3ccc(S(=O)(=O)N4CCC(C)CC4)cc3)o2)cc1 label 1

Outcome? Cc1ccc(C(=O)Nc2nc(-c3ccccn3)cs2)cc1S(=O)(=O)N1CCOCC1 label 1

Outcome? Cc1c(C(=O)N(C)C)sc2nc(-c3ccccn3)[nH]c(=O)c12 label 1

Outcome? CC1CCN(S(=O)(=O)c2ccc(C(=O)Nc3nnc(-c4ccco4)o3)cc2)CC1 label 1

Outcome? CC1CCN(S(=O)(=O)c2ccc(C(=O)Nc3nnc(-c4ccccc4)o3)cc2)CC1 label 1

Outcome? O=C(Cc1ccccc1)NC(c1ccco1)c1ccc2cccnc2c1O (configuration not stated) label 1

Outcome? O=C(CSc1n[nH]c(-c2ccccn2)n1)Nc1ccc(Cl)cc1 label 1

Outcome? Cc1nnc(NC(=O)c2ccc(S(=O)(=O)N3CCCCC3)cc2)o1 label 1

Outcome? CC1CCN(S(=O)(=O)c2ccc(C(=O)Nc3nnc(C4=COCCO4)o3)cc2)CC1 label 1
